These measurements were taken from PubChem BioAssay (NCI).

Test system: HOP-62 NSCLC
Experiment: NCI-60 one-dose screen, 48 h
Settings: 10 µM unless noted
This is part of a sample that, as a whole, favours compounds with a hit. Of some 83,000 tested, about 20% had one in any assay. Active and inactive are the calls of the source. Rule for the calls: active = growth percent below 10; inactive = the rest.
Please reply with one of these outcomes: active, inactive

Reference set (3 entries):
[[record]]
molecule = "CCCCOc1ccc(NC(=O)n2nc(N=NN(C)C)c3ccc(Cl)cc32)cc1"
study_system = "HOP-62 NSCLC"
group_label = "inactive"

[[record]]
molecule = "COc1ccc(-c2cc(-c3cc(OC)ccc3O)[nH]c(=O)c2C#N)cc1"
study_system = "HOP-62 NSCLC"
group_label = "inactive"

[[record]]
molecule = "NS(=O)(=O)c1cn(-c2ncnc3nc[nH]c23)ccc1=O"
study_system = "HOP-62 NSCLC"
group_label = "inactive"


Assay result, entry C=C(CNCCc1ccc(O)cc1)[C@@H]1CC[C@]2(COC3CCCCO3)CC[C@]3(C)[C@H](CC[C@@H]4[C@@]5(C)CCC(NCCO)C(C)(C)[C@@H]5CC[C@]43C)[C@@H]12 (some centres undefined) — outcome?
active

* * *

Test system: HCT-15 colon
Assay: NCI-60 one-dose screen, 48 h
Details: 10 µM unless noted
This is part of a sample that, as a whole, favours compounds with a hit. Of some 83,000 tested, about 20% had one in any assay. Activity calls are given as the source filed them. How the source made its calls: active means growth percent below 10; inactive means the rest.
Please reply with one of these outcomes: active, inactive

Reference set (5 entries):
[[record]]
compound = "CCOC(=O)C1=C(C)NC(SCc2nnc(-c3ccc(Cl)cc3)o2)=NC1c1ccc(Cl)cc1Cl (stereo not given)"
group_label = "inactive"

[[record]]
compound = "NC(N)=N/N=C(/c1ccccc1)c1ccc(N)cc1"
group_label = "inactive"

[[record]]
compound = "CCCCOC(=O)c1ccc(NC(=O)C(C)N2CCOCC2)cc1 (stereo not given)"
group_label = "inactive"

[[record]]
compound = "COc1cc2c(cc1OC)-c1ccc3cc4c(cc3c1N(CCCN(C)C)C2)OCO4"
group_label = "inactive"

[[record]]
compound = "O=c1[nH]nc(-c2ccc(Cl)cc2)cc1Cc1ccccc1"
group_label = "inactive"


Assay result, entry O=C1/C(=C/c2ccccc2[N+](=O)[O-])COc2ccc(O)c(O)c21 — outcome?
active

Assay result, entry CO[C@H]1/C=C/O[C@@]2(C)Oc3c(C)c(O)c4c(c3C2=O)C(=O)C(/C=N/N(c2ccccc2)c2ccccc2)=C(NC(=O)/C(C)=C\C=C\[C@H](C)[C@H](O)[C@@H](C)[C@@H](O)[C@@H](C)[C@H](OC(C)=O)[C@@H]1C)C4=O — outcome?
active

Assay result, entry O=C1CSC(c2ccccc2)N1c1ccccc1 (stereo not given) — outcome?
inactive

Assay result, entry COc1cc(/C=C/C(=O)c2cccc(-n3cc(-c4ccccc4)[nH]c3=O)c2)cc(OC)c1OC — outcome?
active

Assay result, entry C#CC[C@H](N)C(=O)O — outcome?
inactive

Assay result, entry CC(=O)Nc1ccc2c(c1)Cc1c(F)cccc1-2 — outcome?
inactive

Assay result, entry O=C(NCCN1CCC(O)CC1)c1cc2c(o1)C(=O)c1ccccc1C2=O — outcome?
active

Assay result, entry C=C(CNCCc1ccc(O)cc1)[C@@H]1CC[C@]2(COC3CCCCO3)CC[C@]3(C)[C@H](CC[C@@H]4[C@@]5(C)CCC(N)C(C)(C)[C@@H]5CC[C@]43C)[C@@H]12 (stereo not given in full) — outcome?
active

Assay result, entry COc1cc(NC(=O)c2cc(O)c(CC=C(C)C)c(O)c2)cc2c1O[C@]1(C)CC[C@@H](O)C(C)(C)[C@H]1C2 — outcome?
inactive

Assay result, entry CC(C)(O)c1cccc(F)c1 — outcome?
inactive
